Target: T1, hPD-1 Avi-Tag Biotin (AcroBiosystems PD1-H82E4) (human, UniProt Q15116 25-167, biotin on Avi-Tag)
T1 construct: bought; also called human PD-1
T1 sequence (Q15116 25-167 limits assumed): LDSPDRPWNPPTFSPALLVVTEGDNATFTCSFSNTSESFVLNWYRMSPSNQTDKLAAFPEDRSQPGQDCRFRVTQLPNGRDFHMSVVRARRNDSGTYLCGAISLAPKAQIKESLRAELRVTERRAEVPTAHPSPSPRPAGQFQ
Assay: SPR, Ab captured, PD-1 analyte
Documented kon across a set of binders
Write down the numeric answer in M⁻¹ s⁻¹ and omit the unit.

XVT458-z2-m4 (antibody, V domains shown, IgG format; also called z2_XVT458m4) VH: QVQLVQSGAEVKKPGASVKVSCKASGYTFTNFYIHWVRQAPGQGLEWMGRIYPNYGITAYNQKFKDRVTMTVDTSTSTAYMELRSLRSDDTAVYYCARGYSYAMDYWGQGTTVTVSS VL: DIQMTQSPSSVSASVGDRVTITCSASQGISGDLNWYQQKPGKAPKLLIYHTSSRHSGVPSRFSGSGSGTDFTLTISSLQPEDFATYYCQGYSKDLLTFGGGTKLEIK : 142000

Asked: Return kon for the following binder: z2-XVT458 (antibody, IgG1, V domains shown, full hIgG1; also called XVT458-z2; GH + T071V) VH: QVQLVQSGAEVKKPGASVKVSCKASGYTFTNFYIHWVRQAPGQGLEWMGSIYPNYGDTAYNQKFKDRVTMTVDTSTSTAYMELRSLRSDDTAVYYCARGYSYAMDYWGQGTTVTVSS VL: DIQMTQSPSSVSASVGDRVTITCSASQGISGDLNWYQQKPGKAPKLLIYHTSSLHSGVPSRFSGSGSGTDFTLTISSLQPEDFATYYCQYYSKDLLTFGGGTKLEIK
Given back: 99200
